molecular target: GABAA receptor (rat brain cortical membranes, [35S]-TBPS binding); conditions: Table I-4; rat brain cortical membranes, 3 nM [35S]-TBPS, in the presence of 5 mM GABA
pIC50: −log10 of the molar value.
Recorded pIC50 values for a group of compounds are listed next.
MEASUREMENT TYPE: pIC50

INSERT INTO results (compound, measurement_type, result) VALUES
  ('COC[C@@]1(O)CC[C@H]2[C@@H](CC[C@@H]3[C@@H]2CC[C@]2(C)[C@@H](Nc4ccc(F)cc4)CCC[C@@H]32)C1', 'pIC50', '7.00 to 8.00'),
  ('COC[C@@]1(O)CC[C@H]2[C@@H](CC[C@@H]3[C@@H]2CC[C@]2(C)[C@@H](C(=O)Cn4nnc(C)n4)CCC[C@@H]32)C1', 'pIC50', '> 8.00'),
  ('C[C@@]1(O)CC[C@H]2[C@H](CC[C@@H]3[C@@H]2CC[C@]2(C)[C@@H](C(=O)NCc4ccccc4)CCC[C@@H]32)C1', 'pIC50', '7.00 to 8.00');
